- Target Or System: protein TAZ (Homo sapiens, UniProt Q9GZV5)
- Construct: introducing full length TAZ cDNA synthesized by PCR method into vector pEGFP; expressed in transfected cells
- Sequence (Q9GZV5 whole entry): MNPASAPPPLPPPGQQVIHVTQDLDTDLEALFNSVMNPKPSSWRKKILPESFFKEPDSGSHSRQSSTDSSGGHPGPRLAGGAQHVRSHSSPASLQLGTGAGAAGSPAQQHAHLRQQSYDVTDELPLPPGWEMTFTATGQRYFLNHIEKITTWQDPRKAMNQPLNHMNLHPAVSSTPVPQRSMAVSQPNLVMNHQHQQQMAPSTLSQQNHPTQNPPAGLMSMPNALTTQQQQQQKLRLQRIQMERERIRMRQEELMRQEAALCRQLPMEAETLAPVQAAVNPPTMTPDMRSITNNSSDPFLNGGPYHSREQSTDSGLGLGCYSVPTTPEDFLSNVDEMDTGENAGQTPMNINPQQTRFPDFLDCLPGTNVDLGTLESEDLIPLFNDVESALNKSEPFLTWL
- Assay Text: Stimulating TAZ protein migration toward nucleus (GFP-TAZ high-content imaging)
- Assay type: cell-based
- Condition Info: 0.5 h, after 30 minutes, Cos cells, percentage based on non-treated control cells, read-out: Expression (%): GFP expression of protein TAZ in the nucleus
// activity at 10 µM lookup, one value per entry
State the answer as a number, implicitly in %.

Form field: reported activity at 10 µM of CCCCc1nc2c(C)cc(CO)nc2n1Cc1ccc(-c2ccccc2-c2nnn[nH]2)cc1 [V]
151

* * *

// activity at 10 µM lookup, one value per entry
- Target Or System: protein TAZ (Homo sapiens, UniProt Q9GZV5)
- Construct: introducing full length TAZ cDNA synthesized by PCR method into vector pEGFP; expressed in transfected cells
- Assay Text: Stimulating TAZ protein migration toward nucleus (GFP-TAZ high-content imaging)
- Type: cell-based
- Condition Info: 0.5 h, after 30 minutes, Cos cells, percentage based on non-treated control cells, read-out: Expression (%): GFP expression of protein TAZ in the nucleus
State the answer as a number, implicitly in %.

# Compound, Target Or System, Units Label, activity at 10 µM
measured = [
    ("CCCCc1nc2cc(Br)c(COC(C)=O)nc2n1Cc1ccc(-c2ccccc2-c2nnnn2C(C)OCC)cc1 (stereo not shown)", "protein TAZ (Homo sapiens, UniProt Q9GZV5)", "%", 147),
    ("CCCCc1nc2cc(C(O)c3ccccc3)c(C(OC)OC)nc2n1Cc1ccc(-c2ccccc2-c2nnnn2C(C)OCC)cc1 (stereo not shown)", "protein TAZ (Homo sapiens, UniProt Q9GZV5)", "%", 160),
    ("CCCCc1nc2cc(-c3ccccn3)c(C(=O)OC)nc2n1Cc1ccc(-c2ccccc2-c2nnn[nH]2)cc1", "protein TAZ (Homo sapiens, UniProt Q9GZV5)", "%", 135),
]

Could you share what activity at 10 µM was measured for "CCCCc1nc2c(C)c(-c3ccccc3)c(COCSC)nc2n1Cc1ccc(-c2ccccc2-c2nnn[nH]2)cc1" , tested on protein TAZ (Homo sapiens, UniProt Q9GZV5)?
134

* * *

- Target Or System: protein TAZ (Homo sapiens)
- Construct: introducing full length TAZ cDNA synthesized by PCR method into vector pEGFP; expressed in transfected cells
- Assay Text: Stimulating TAZ protein migration toward nucleus (GFP-TAZ high-content imaging)
- Assay type: cell-based
- Condition Info: 0.5 h, after 30 minutes, Cos cells, percentage based on non-treated control cells, read-out: Expression (%): GFP expression of protein TAZ in the nucleus
- Method: Vector pEGFP-TAZ in which GFP (green fluorescence protein) is linked to protein TAZ was prepared, and nucleus specific histone protein (RFP-H2B) expression vector having introduced RFP (red fluorescence protein) therein was prepared. […] GFP expressions of protein TAZ in the nucleus were analyzed and calculated in percentage term based on that of non-treated cells in a control group, which are shown in Table 3.
// activity at 10 µM lookup, one value per entry
State the answer as a number, implicitly in %.

Some compounds with recorded activity at 10 µM:
# Smiles Repr, activity at 10 µM (%)
records = [
    ("CCc1nc2c(C)cc(CO)nc2n1Cc1ccc(-c2ccccc2-c2nnn[nH]2)cc1", 130),
    ("CCCCc1nc2cc(C(=O)OC)c(/C=C/c3ccccc3)cc2n1Cc1ccc(-c2ccccc2-c2nnn[nH]2)cc1", 149),
]

Could you share what activity at 10 µM was measured for "CCCCc1nc2cc(-c3cccnc3)c(C)nc2n1Cc1ccc(-c2ccccc2-c2nnn[nH]2)cc1" , tested on protein TAZ (Homo sapiens)?
157

Continue with "CCCCc1nc2cc(-c3cccc[n+]3[O-])c(CF)nc2n1Cc1ccc(-c2ccccc2-c2nnn[nH]2)cc1"
132

The origin of these recorded values is patent US9090608B2.
